- given smiles: "CN(C)c1cc2c(cc1C(F)(F)F)NC(=O)CC(c1cccc(-n3nncc3CNCC(F)(F)F)c1)=N2"
  melting point: "168 to 170 °C"
- given smiles: "CC(C)CN(C)c1cc2c(cc1Cl)NC(=O)CC(c1cccc(-c3nc(CO)co3)c1)=N2"
  melting point: "166 to 167 °C"
- given smiles: "CCCc1sc(CO)nc1-c1cccc(C2=Nc3cc(N(C)C)c(C(F)(F)F)cc3NC(=O)C2)c1"
  melting point: "112 to 114 °C"
- given smiles: "CC(C)c1nc(-c2cccc(C3=Nc4cc(N(C)C)c(C(F)(F)F)cc4NC(=O)C3)c2)c[nH]1"
  melting point: "150 °C (dec.)"
- given smiles: "Cc1cc(-c2cccc(C3=Nc4cc(N(C)C)c(Cl)cc4NC(=O)C3)c2)on1"
  melting point: "212 to 215 °C"
- given smiles: "CN(C)c1cc2c(cc1Cl)NC(=O)CC(c1cccc(-c3csc(NC(=N)N)n3)c1)=N2"
  melting point: "221 °C (dec.)"

* * *

melting point reference

- given smiles: "CN(CC1CC1)c1cc2c(cc1C(F)(F)F)NC(=O)CC(c1cccc(-n3nncc3CNC3CC3)c1)=N2"
  melting point: "35 to 46 °C"
- given smiles: "CCN(C)c1cc2c(cc1Cl)NC(=O)CC(c1cccc(-c3nc(CO)co3)c1)=N2"
  melting point: "165 to 166 °C"
- given smiles: "CN(C)c1cc2c(cc1C(F)(F)F)NC(=O)CC(c1cccc(-n3cnnc3)c1)=N2"
  melting point: "247 to 250 °C"

* * *

measured parameter: melting point

- compound: "Cc1nc(-c2cccc(C3=Nc4cc(N(C)C)c(C(F)(F)F)cc4NC(=O)C3)c2)c(CO)s1 [Example 218]"
  measured parameter: "melting point"
  result: "226 to 227 °C"
- compound: "CN(C)c1cc2c(cc1C#Cc1ccccc1)NC(=O)CC(c1cccc(C#N)c1)=N2 [Example 4]"
  measured parameter: "melting point"
  result: "215 to 216 °C"
- compound: "N#Cc1cc(C2=Nc3cc(OCC(F)(F)F)c(C(F)(F)F)cc3NC(=O)C2)ccn1 [Example 88]"
  measured parameter: "melting point"
  result: "252 to 255 °C"
- compound: "O=C1CC(c2cccc(-n3nncc3CO)c2)=Nc2cc(N3CCCC3)c(Cl)cc2N1 [Example 32]"
  measured parameter: "melting point"
  result: "193 to 197 °C"
- compound: "CC(C)N(C)c1cc2c(cc1Cl)NC(=O)CC(c1cccc(-c3nc(CO)cs3)c1)=N2 [Example 185]"
  measured parameter: "melting point"
  result: "193 to 195 °C"
- compound: "CN(C)c1cc2c(cc1Cl)NC(=O)CC(c1cccc(-c3csc(CO)n3)c1)=N2 [Example 193]"
  measured parameter: "melting point"
  result: "176 to 178 °C"
- compound: "CN(C)c1cc2c(cc1C(F)(F)F)NC(=O)CC(c1cccc(-c3nnc(CCO)o3)c1)=N2 [Example 207]"
  measured parameter: "melting point"
  result: "237 °C (dec.)"
- compound: "CC(C)N(C)c1cc2c(cc1Cl)NC(=O)CC(c1cccc(-c3nc(CO)co3)c1)=N2 [Example 189]"
  measured parameter: "melting point"
  result: "143 to 145 °C"
